molecular target: HIV-1 reverse transcriptase (Human immunodeficiency virus type 1 group M subtype B, UniProt P04585); construct: HIV-1 reverse transcriptase (RT); experiment: Inhibition of HIV-1 reverse transcriptase (incorporation of tritiated thymidine phosphate into cDNA), alone and combined with AZT-TP; assay type: biochemical; conditions: in combination with AZT-TP; AZT-TP/compound ratio 1/20 (MKC-442), 1/250 (R82913), 1/250 (Nevirapine), 1/40 (L-696229); CI<1 synergistic, CI>1 counterbalance
Readout Label: Combination Index CI50 (50% inhibition of RT)

| Smiles Text | Reported Value |
| --- | --- |
| CCOCn1c(Cc2ccccc2)c(C(C)C)c(=O)[nH]c1=O | 0.82 |
| Cc1ccnc2c1NC(=O)c1cccnc1N2C1CC1 | 1.04 |
| CCc1cc(CCc2nc3ccccc3o2)c(=O)[nH]c1C | 0.97 |
| CC(C)=CCN1Cc2cc(Cl)cc3[nH]c(=S)n(c23)C[C@@H]1C | 1.15 |

###

molecular target: HIV-1 reverse transcriptase (Human immunodeficiency virus type 1 group M subtype B); construct: HIV-1 reverse transcriptase (RT); assay: Inhibition of HIV-1 reverse transcriptase (incorporation of tritiated thymidine phosphate into cDNA), alone and combined with AZT-TP; format: biochemical; conditions: in combination with AZT-TP; AZT-TP/compound ratio 1/20 (MKC-442), 1/250 (R82913), 1/250 (Nevirapine), 1/40 (L-696229); CI<1 synergistic, CI>1 counterbalance
Readout Label: Combination Index CI70 (70% inhibition of RT)

| Smiles Text | Reported Value |
| --- | --- |
| CCOCn1c(Cc2ccccc2)c(C(C)C)c(=O)[nH]c1=O | 0.63 |
| Cc1ccnc2c1NC(=O)c1cccnc1N2C1CC1 | 0.91 |
| CCc1cc(CCc2nc3ccccc3o2)c(=O)[nH]c1C | 0.99 |
| CC(C)=CCN1Cc2cc(Cl)cc3[nH]c(=S)n(c23)C[C@@H]1C | 1.33 |

###

target: HIV-1 reverse transcriptase (Human immunodeficiency virus type 1 group M subtype B); construct: HIV-1 reverse transcriptase (RT); assay: Inhibition of HIV-1 reverse transcriptase (incorporation of tritiated thymidine phosphate into cDNA), alone and combined with AZT-TP; type: biochemical; settings: in combination with AZT-TP; AZT-TP/compound ratio 1/20 (MKC-442), 1/250 (R82913), 1/250 (Nevirapine), 1/40 (L-696229); CI<1 synergistic, CI>1 counterbalance
Readout Label: Combination Index CI90 (90% inhibition of RT)

| Compound | Reported Value |
| --- | --- |
| CCOCn1c(Cc2ccccc2)c(C(C)C)c(=O)[nH]c1=O [MKC-442] | 0.43 |
| CC(C)=CCN1Cc2cc(Cl)cc3[nH]c(=S)n(c23)C[C@@H]1C [R82913] | 1.70 |
| Cc1ccnc2c1NC(=O)c1cccnc1N2C1CC1 [Nevirapine] | 0.69 |
| CCc1cc(CCc2nc3ccccc3o2)c(=O)[nH]c1C [L-696229] | 1.06 |

###

target: HIV-1 reverse transcriptase (Human immunodeficiency virus type 1 group M subtype B, UniProt P04585); construct: HIV-1 reverse transcriptase (RT); test: Inhibition of HIV-1 reverse transcriptase (incorporation of tritiated thymidine phosphate into cDNA), alone and combined with AZT-TP; details: used alone; poly(rA).p(dT)12-18 template, 37° C., 30 min; read-out: IC50 (concentration required to obtain 50% inhibition of RT when used alone)
pIC50: −log10 of the molar value.

| Smiles Text | pIC50 |
| --- | --- |
| CCOCn1c(Cc2ccccc2)c(C(C)C)c(=O)[nH]c1=O | 7.47 |
